Assay: Solubility of docetaxel in various solvents
Assay type: physicochemical
Settings: organic solvent or mixture; solvent Benzyl alcohol; read-out: Solubility of Docetaxel, Concentration
assay.endpoint: solubility (mg/mL)
Return type: number; implicit unit mg/mL.

## Task I would be grateful if you could share the reported solubility for CC(=O)O[C@@]12CO[C@@H]1C[C@H](O)[C@@]1(C)C(=O)[C@H](O)C3=C(C)[C@@H](OC(=O)[C@H](O)[C@@H](NC(=O)OC(C)(C)C)c4ccccc4)C[C@@](O)([C@@H](OC(=O)c4ccccc4)[C@H]21)C3(C)C [Docetaxel, trihydrate] .
## Result 90

* * *

Test: Solubility of docetaxel in various solvents
Format: physicochemical
Conditions: oil or lipid; solvent PECEOL® (Glycerol mono Oleate 40); read-out: Solubility of Docetaxel, Concentration
Description: In consideration of the severe side effects associated with the use of polysorbates, such as TWEEN 80®, as solubilizers of docetaxel, solubility studies were conducted to determine non-toxic solvents that can effectively dissolve docetaxel. Solubility of docetaxel was assessed using several different solvents that are well-tolerated in subjects, as well as polysorbates for comparison.
assay.endpoint: solubility (µg/mL)
Return type: number; implicit unit µg/mL.

## Task I would be grateful if you could share the reported solubility for CC(=O)O[C@@]12CO[C@@H]1C[C@H](O)[C@@]1(C)C(=O)[C@H](O)C3=C(C)[C@@H](OC(=O)[C@H](O)[C@@H](NC(=O)OC(C)(C)C)c4ccccc4)C[C@@](O)([C@@H](OC(=O)c4ccccc4)[C@H]21)C3(C)C [Docetaxel, trihydrate] .
## Result 7000

* * *

Experiment: Solubility of docetaxel in various solvents
Assay type: physicochemical
Details: oil or lipid; solvent MAISINE™ 35-1 (Glycerol mono linoleate); read-out: Solubility of Docetaxel, Concentration
assay.endpoint: solubility (µg/mL)
Return type: number; implicit unit µg/mL.

## Task I would be grateful if you could share the reported solubility for CC(=O)O[C@@]12CO[C@@H]1C[C@H](O)[C@@]1(C)C(=O)[C@H](O)C3=C(C)[C@@H](OC(=O)[C@H](O)[C@@H](NC(=O)OC(C)(C)C)c4ccccc4)C[C@@](O)([C@@H](OC(=O)c4ccccc4)[C@H]21)C3(C)C [Docetaxel, trihydrate] .
## Result 10000

* * *

Assay: Solubility of docetaxel in various solvents
Assay type: physicochemical
Settings: organic solvent or mixture; solvent Glycofurol; read-out: Solubility of Docetaxel, Concentration
assay.endpoint: solubility (mg/mL)
Return type: number; implicit unit mg/mL.

## Task I would be grateful if you could share the reported solubility for CC(=O)O[C@@]12CO[C@@H]1C[C@H](O)[C@@]1(C)C(=O)[C@H](O)C3=C(C)[C@@H](OC(=O)[C@H](O)[C@@H](NC(=O)OC(C)(C)C)c4ccccc4)C[C@@](O)([C@@H](OC(=O)c4ccccc4)[C@H]21)C3(C)C [Docetaxel, trihydrate] .
## Result 200

* * *

Assay: Solubility of docetaxel in various solvents
Assay type: physicochemical
Conditions: organic solvent or mixture; solvent Span 80; read-out: Solubility of Docetaxel, Concentration
assay.endpoint: solubility (µg/mL)
Return type: number; implicit unit µg/mL.

## Task I would be grateful if you could share the reported solubility for CC(=O)O[C@@]12CO[C@@H]1C[C@H](O)[C@@]1(C)C(=O)[C@H](O)C3=C(C)[C@@H](OC(=O)[C@H](O)[C@@H](NC(=O)OC(C)(C)C)c4ccccc4)C[C@@](O)([C@@H](OC(=O)c4ccccc4)[C@H]21)C3(C)C [Docetaxel, trihydrate] .
## Result 3500
